- System: Bcap37
- Assay Procedure: Cytotoxicity against human Bcap37 cells after 72 hrs by MTT assay
- Condition Info: Bcap37, 72 h
Label 1 (yes) when IC50 is strictly below 10 µM; at or above that, label 0 (no).

1. COc1ccccc1/C=C/C(=O)/C=C/c1ccc(Oc2ncnc3c(C)cccc23)cc1: 1 (yes)
2. Cc1cccc2c(Oc3ccc(/C=C/C(=O)/C=C/c4cc([N+](=O)[O-])ccc4Cl)cc3)ncnc12: 1 (yes)
3. O=C(/C=C/c1ccc(F)cc1)/C=C/c1ccc(Oc2ncnc3ccccc23)cc1: 1 (yes)
4. Cc1nn(C)c(Cl)c1/C=C/C(=O)/C=C/c1ccc(Oc2ncnc3ccccc23)cc1: 0 (no)
5. COc1ccc(OC)c(/C=C/C(=O)/C=C/c2ccc(Oc3ncnc4c(C)cccc34)cc2)c1: 1 (yes)
6. COc1ccccc1/C=C/C(=O)/C=C/c1ccc(Oc2ncnc3ccccc23)cc1: 1 (yes)
7. O=C(/C=C/c1ccc(Oc2ncnc3ccccc23)cc1)/C=C/c1cc([N+](=O)[O-])ccc1Cl: 1 (yes)
8. Cc1cccc2c(Oc3ccc(/C=C/C(=O)/C=C/c4ccc(Cl)cc4)cc3)ncnc12: 0 (no)
9. COc1ccc(OC)c(/C=C/C(=O)/C=C/c2ccc(Oc3ncnc4ccccc34)cc2)c1: 1 (yes)
10. Cc1cccc2c(Oc3ccc(/C=C/C(=O)/C=C/c4ccc(Cl)cc4Cl)cc3)ncnc12: 0 (no)
11. Cc1cccc2c(Oc3ccc(/C=C/C(=O)/C=C/c4ccc(F)cc4)cc3)ncnc12: 1 (yes)
12. CC(=O)/C=C/c1ccc(Oc2ncnc3ccccc23)cc1: 0 (no)
13. O=C(/C=C/c1ccc(Cl)cc1)/C=C/c1ccc(Oc2ncnc3ccccc23)cc1: 0 (no)
14. COc1cccc2c1C(=O)c1c(O)c3c(c(O)c1C2=O)C[C@@](O)(C(=O)CO)C[C@@H]3O[C@H]1C[C@H](N)[C@H](O)[C@H](C)O1: 1 (yes)
15. CC(=O)/C=C/c1ccc(Oc2ncnc3c(C)cccc23)cc1: 0 (no)
16. Cc1nn(C)c(Cl)c1/C=C/C(=O)/C=C/c1ccc(Oc2ncnc3c(C)cccc23)cc1: 0 (no)
17. O=C(/C=C/c1ccc(Oc2ncnc3ccccc23)cc1)/C=C/c1ccc(Cl)cc1Cl: 0 (no)

====

- Assay Procedure: Selectivity index, ratio of IC50 for mouse NIH3T3 cells to IC50 for human PC3 cells
- Format: functional
Value Kind: Ratio IC50

1) COc1ccccc1/C=C/C(=O)/C=C/c1ccc(Oc2ncnc3ccccc23)cc1: 3.4
2) COc1ccc(OC)c(/C=C/C(=O)/C=C/c2ccc(Oc3ncnc4ccccc34)cc2)c1: 4.46
